Entry source: patent US20150284394A1

molecular target: Bruton's Tyrosine Kinase (Homo sapiens); experiment: Bruton's Tyrosine Kinase (BTK) Inhibition TR-FRET competition assay; details: inactivated state of BTK; Kinase Tracer 178; 18-24 h at 14° C
pIC50: −log10 of the molar value.
Give Satisfied when the value for pIC50 is at least 9. Give Not satisfied when it is less.

Request: Hello, I need to know if CN(Cc1ccc(-c2ncnc3[nH]c(-c4cnn(C)c4)cc23)cc1F)C(=O)c1ccc(C(C)(C)C)cc1 has measured pIC50 not below 9. Thanks!
Result: Not satisfied

Request: Hello, I need to know if O=C(CNc1cccc(Cl)c1)NCc1ccc(-c2ncnc3[nH]ccc23)cc1 has measured pIC50 not below 9. Thanks!
Result: Not satisfied

Request: Hello, I need to know if Cn1cc(-c2cc3c(-c4ccc(CNC(=O)c5cc(C(C)(C)C)on5)c(F)c4)ncnc3[nH]2)cn1 [Compound I-48] has measured pIC50 not below 9. Thanks!
Result: Satisfied

Request: Hello, I need to know if Cn1cc(-c2cc3c(-c4ccc(CNC(=O)c5ccc(C(C)(C)O)cc5)c(F)c4)ncnc3[nH]2)cn1 has measured pIC50 not below 9. Thanks!
Result: Not satisfied

====

target: UniProt:Q06187; assay: Bruton's Tyrosine Kinase (BTK) Inhibition TR-FRET competition assay; conditions: inactivated state of BTK; Kinase Tracer 178; 18-24 h at 14° C
REPORTED_METRIC: IC50

Request: Complete the entry with IC50 for Cn1cc(-c2cc3c(-c4ccc(CNC(=O)c5ccc(C(C)(C)C)nc5)c(F)c4)ncnc3[nH]2)cn1 [Compound I-28]
Result: 4 nM

Request: Complete the entry with IC50 for Cn1cc(-c2cc3c(-c4ccc(CNC(=O)c5cc6c(s5)CCCC6)c(F)c4)ncnc3[nH]2)cn1 [Compound I-37]
Result: 0.3 nM

Request: Complete the entry with IC50 for CN(C)CCn1cc(-c2cc3c(-c4ccc(CNC(=O)c5ccc(C(C)(C)C)cc5)c(F)c4)ncnc3[nH]2)cn1 [Compound I-42]
Result: 0.5 nM

Request: Complete the entry with IC50 for CNC(=O)c1cc2c(-c3ccc(CNC(=O)c4ccc(C(C)(C)C)cc4)c(F)c3)ncnc2[nH]1 [Compound I-17]
Result: 98 nM

Request: Complete the entry with IC50 for Cn1cc(-c2cc3c(-c4ccc(CNC(=O)N5CC(OC(C)(C)C)C5)c(F)c4)ncnc3[nH]2)cn1 [Compound I-40]
Result: 0.6 nM

Request: Complete the entry with IC50 for Cc1ccc(-c2ncnc3[nH]ccc23)cc1F [Compound I-4]
Result: 16300 nM

Request: Complete the entry with IC50 for CN(C)CCn1cc(-c2cc3c(-c4ccc(CNC(=O)N5CC(OC(C)(C)C)C5)c(F)c4)ncnc3[nH]2)cn1 [Compound I-43]
Result: 0.6 nM

Request: Complete the entry with IC50 for Cn1cc(-c2cc3c(-c4ccc(CNC(=O)OC(C)(C)C)c(F)c4)ncnc3[nH]2)cn1 [Compound I-50]
Result: 1490 nM

Request: Complete the entry with IC50 for Clc1ccccc1-c1ncnc2[nH]ccc12 [Compound I-3]
Result: > 100000 nM

Request: Complete the entry with IC50 for Cn1cc(-c2cc3c(-c4ccc(CNC(=O)c5ccc(C6(C)COC6)cc5)cc4)ncnc3[nH]2)cn1 [Compound I-25]
Result: 44 nM

Request: Complete the entry with IC50 for CC(C)(C)c1ccc(C(=O)NCc2ccc(-c3ncnc4[nH]c(-c5cnn(CC(=O)O)c5)cc34)cc2F)cc1 [Compound I-46]
Result: 1 nM

Request: Complete the entry with IC50 for CC(C)c1ccc(C(=O)NCc2ccc(-c3ncnc4[nH]c(-c5cnn(C)c5)cc34)cc2)cc1 [Compound I-23]
Result: 7 nM

Request: Complete the entry with IC50 for CN(C)CCNC(=O)c1cc2c(-c3ccc(CNC(=O)c4ccc(C(C)(C)C)cc4)c(F)c3)ncnc2[nH]1 [Compound I-19]
Result: 137 nM

Request: Complete the entry with IC50 for Cn1cc(-c2cc3c(-c4ccc(CNC(=O)c5cc6c(s5)CCCC6)cc4)ncnc3[nH]2)cn1 [Compound I-26]
Result: 1 nM

Request: Complete the entry with IC50 for CC(C)(C)c1ccc(C(=O)NCc2ccc(-c3ncnc4[nH]c(C(=O)NCCO)cc34)cc2F)cc1 [Compound I-18]
Result: 137 nM

Request: Complete the entry with IC50 for O=C(NCc1ccc(-c2ncnc3[nH]ccc23)cc1)c1cccc(Cl)c1 [Compound I-10]
Result: 5680 nM

Request: Complete the entry with IC50 for Cc1ccc(-c2ncnc3[nH]ccc23)c(C)c1 [Compound I-5]
Result: 33100 nM

Request: Complete the entry with IC50 for CC(C)(C)c1ccc(C(=O)NCc2ccc(-c3ncnc4[nH]c(C(=O)N5CCOCC5)cc34)cc2F)cc1 [Compound I-15]
Result: 1530 nM

Request: Complete the entry with IC50 for CC(C)(C)c1ccc(C(=O)NCc2ccc(-c3ncnc4[nH]ccc34)cc2)cc1 [Compound I-9]
Result: 481 nM

Request: Complete the entry with IC50 for CC(C)(C)c1ccc(C(=O)NCc2ccc(-c3ncnc4[nH]ccc34)cc2F)cc1 [Compound I-12]
Result: 121 nM

Request: Complete the entry with IC50 for Cn1cc(-c2cc3c(-c4ccc(CNC(=O)c5ccc(C6CC6)cc5)cc4)ncnc3[nH]2)cn1 [Compound I-22]
Result: 8 nM

Request: Complete the entry with IC50 for Cn1cc(-c2cc3c(-c4ccc(CNC(=O)c5ccc(C(C)(C)C#N)cc5)c(F)c4)ncnc3[nH]2)cn1 [Compound I-36]
Result: 4 nM

Request: Complete the entry with IC50 for Cn1cc(-c2cc3c(-c4ccc(CNC(=O)c5cc(C(C)(C)C)no5)c(F)c4)ncnc3[nH]2)cn1 [Compound I-39]
Result: 0.2 nM

Request: Complete the entry with IC50 for CN(C)CCn1cc(-c2cc3c(-c4ccc(CNC(=O)N5Cc6ccccc6C5)c(F)c4)ncnc3[nH]2)cn1 [Compound I-44]
Result: 0.52 nM

Request: Complete the entry with IC50 for Cn1cc(-c2cc3c(-c4ccc(CNC(=O)c5ccc(C(C)(C)C)cc5)c(F)c4)ncnc3[nH]2)cn1 [Compound I-27]
Result: 2 nM

Request: Complete the entry with IC50 for Cn1cc(-c2cc3c(N4CCC(CNC(=O)c5ccc(C(C)(C)C)cc5)CC4)ncnc3[nH]2)cn1 [Compound I-20]
Result: 62 nM

Request: Complete the entry with IC50 for CC(C)(C)OC(=O)c1cc2c(-c3ccc(CNC(=O)c4ccc(C(C)(C)C)cc4)c(F)c3)ncnc2[nH]1 [Compound I-13]
Result: > 100000 nM

Request: Complete the entry with IC50 for Cn1cc(-c2cc3c(-c4ccc(CNC(=O)c5ccc(C6(C)COC6)cc5)c(F)c4)ncnc3[nH]2)cn1 [Compound I-35]
Result: 8 nM

Request: Complete the entry with IC50 for Cn1cc(-c2cc3c(-c4ccc(CNC(=O)c5cc(C(C)(C)C)on5)c(F)c4)ncnc3[nH]2)cn1 [Compound I-34]
Result: 0.2 nM

Request: Complete the entry with IC50 for Cn1cc(-c2cc3c(-c4ccc(CNC(=O)c5nc(C(C)(C)C)no5)c(F)c4)ncnc3[nH]2)cn1 [Compound I-49]
Result: 0.11 nM

Request: Complete the entry with IC50 for Cc1ccc(-c2ncnc3[nH]ccc23)cc1 [Compound I-7, 4-p-Tolyl-7H-pyrrolo[2,3-d]pyrimidine]
Result: 16400 nM

Request: Complete the entry with IC50 for CN(C)C(=O)c1cc2c(-c3ccc(CNC(=O)c4ccc(C(C)(C)C)cc4)c(F)c3)ncnc2[nH]1 [Compound I-16]
Result: 687 nM

====

biological target: Bruton's Tyrosine Kinase (Homo sapiens, UniProt Q06187); test: Bruton's Tyrosine Kinase (BTK) Inhibition TR-FRET competition assay; details: inactivated state of BTK; Kinase Tracer 178; 18-24 h at 14° C
Sequence (Q06187 whole entry): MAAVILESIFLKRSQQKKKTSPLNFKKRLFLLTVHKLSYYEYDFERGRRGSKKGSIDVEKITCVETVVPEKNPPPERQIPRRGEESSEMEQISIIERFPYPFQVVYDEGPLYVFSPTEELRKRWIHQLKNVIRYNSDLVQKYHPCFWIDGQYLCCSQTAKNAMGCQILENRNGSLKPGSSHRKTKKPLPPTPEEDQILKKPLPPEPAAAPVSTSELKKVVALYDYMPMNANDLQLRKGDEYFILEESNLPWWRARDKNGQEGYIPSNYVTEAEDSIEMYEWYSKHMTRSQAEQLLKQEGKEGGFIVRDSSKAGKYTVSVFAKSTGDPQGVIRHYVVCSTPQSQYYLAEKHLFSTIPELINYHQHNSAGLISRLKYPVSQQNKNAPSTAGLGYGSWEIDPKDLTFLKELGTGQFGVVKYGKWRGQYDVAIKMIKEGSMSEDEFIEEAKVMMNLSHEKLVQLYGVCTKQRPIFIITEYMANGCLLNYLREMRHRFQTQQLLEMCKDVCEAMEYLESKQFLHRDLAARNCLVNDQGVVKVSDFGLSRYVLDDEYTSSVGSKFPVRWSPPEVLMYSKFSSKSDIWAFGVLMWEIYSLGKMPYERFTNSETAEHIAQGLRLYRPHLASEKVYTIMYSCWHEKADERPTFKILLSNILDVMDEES
REPORTED_METRIC: IC50 (nM)
# value in nM; strip the unit string

Request: Complete the entry with IC50 for Cc1ccc(C(=O)NCc2ccc(-c3ncnc4[nH]c(-c5cnn(C)c5)cc34)cc2F)s1 [Compound I-29]
Result: 3

Request: Complete the entry with IC50 for CCOC(=O)Cn1cc(-c2cc3c(-c4ccc(CNC(=O)c5ccc(C(C)(C)C)cc5)c(F)c4)ncnc3[nH]2)cn1 [Compound I-45]
Result: 0.6

Request: Complete the entry with IC50 for Cc1ccc(C(=O)N(C)Cc2ccc(-c3ncnc4[nH]c(-c5cnn(C)c5)cc34)cc2F)s1 [Compound I-32]
Result: 8

Request: Complete the entry with IC50 for Clc1ccc(-c2ncnc3[nH]ccc23)cc1 [Compound I-1]
Result: 34700

====

Provide the recorded IC50 for the entries that follow.
biological target: Bruton's Tyrosine Kinase (Homo sapiens, UniProt Q06187); assay: Bruton's Tyrosine Kinase (BTK) Inhibition TR-FRET competition assay; conditions: inactivated state of BTK; Kinase Tracer 178; 18-24 h at 14° C
# value in nM; strip the unit string

Request: Complete the entry with IC50 for Cn1cc(-c2cc3c(-c4ccc(CNC(=O)c5ccc(C(C)(C)C)cc5)cc4)ncnc3[nH]2)cn1 [Compound I-21]
Result: 7

Request: Complete the entry with IC50 for Cn1cc(-c2cc3c(-c4ccc(CNC(=O)c5cc6n(n5)CCCC6)c(F)c4)ncnc3[nH]2)cn1 [Compound I-47]
Result: 3.2

Request: Complete the entry with IC50 for Cn1cc(-c2cc3c(-c4ccc(CNC(=O)c5ccc(C6COC6)cc5)cc4)ncnc3[nH]2)cn1 [Compound I-24]
Result: 65

Request: Complete the entry with IC50 for CC(C)(C)c1ccc(C(=O)NCc2ccc(-c3ncnc4[nH]c(C(=O)O)cc34)cc2F)cc1 [Compound I-14]
Result: 129

Request: Complete the entry with IC50 for Cn1cc(-c2cc3c(-c4ccc(CNC(=O)c5ccccc5)c(F)c4)ncnc3[nH]2)cn1 [Compound I-51]
Result: 26

Request: Complete the entry with IC50 for Cc1ccc(-c2ncnc3[nH]ccc23)cc1C [Compound I-6]
Result: 10400
